- System: Rattus norvegicus
- test: Antiulcer activity in rat at the dose of 20 mg/kg administered intraperitoneally.
- Assay type: functional
- condition: ip, route intraperitoneal
Please provide measured inhibition in vivo at 20 mg/kg for the entries that follow.
Reply with just the number (in %).

Incoming: Please report the measured inhibition in vivo at 20 mg/kg for `CS(=O)(=O)c1cccc(-c2nc(N)nc(N)n2)c1` tested on Rattus norvegicus.
Outgoing: -6

Incoming: Please report the measured inhibition in vivo at 20 mg/kg for `COc1ccc(Br)cc1-c1nc(N)nc(N)n1` tested on Rattus norvegicus.
Outgoing: 49

Incoming: Please report the measured inhibition in vivo at 20 mg/kg for `COc1ccccc1-c1nc(N)nc(N)n1` tested on Rattus norvegicus.
Outgoing: 1

Incoming: Please report the measured inhibition in vivo at 20 mg/kg for `Nc1nc(N)nc(-c2cc(Cl)ccc2Cl)n1` tested on Rattus norvegicus.
Outgoing: 100

Incoming: Please report the measured inhibition in vivo at 20 mg/kg for `Nc1nc(N)nc(-c2ccc(Cl)cc2Br)n1` tested on Rattus norvegicus.
Outgoing: 96

Incoming: Please report the measured inhibition in vivo at 20 mg/kg for `Nc1nc(N)nc(-c2cc(Br)ccc2Cl)n1` tested on Rattus norvegicus.
Outgoing: 86

Incoming: Please report the measured inhibition in vivo at 20 mg/kg for `Nc1nc(N)nc(-c2cccc(Cl)c2)n1` tested on Rattus norvegicus.
Outgoing: 100

Incoming: Please report the measured inhibition in vivo at 20 mg/kg for `Nc1nc(N)nc(-c2ccc([N+](=O)[O-])cc2)n1` tested on Rattus norvegicus.
Outgoing: 41

Incoming: Please report the measured inhibition in vivo at 20 mg/kg for `Nc1nc(N)nc(-c2ccc(F)cc2)n1` tested on Rattus norvegicus.
Outgoing: 84

Incoming: Please report the measured inhibition in vivo at 20 mg/kg for `Nc1nc(N)nc(-c2cccc(Br)c2)n1` tested on Rattus norvegicus.
Outgoing: 96

Incoming: Please report the measured inhibition in vivo at 20 mg/kg for `Nc1nc(N)nc(-c2cc(F)ccc2Cl)n1` tested on Rattus norvegicus.
Outgoing: 78

Incoming: Please report the measured inhibition in vivo at 20 mg/kg for `CCOc1ccccc1-c1nc(N)nc(N)n1` tested on Rattus norvegicus.
Outgoing: -5

Incoming: Please report the measured inhibition in vivo at 20 mg/kg for `Nc1nc(N)nc(-c2ccccc2[N+](=O)[O-])n1` tested on Rattus norvegicus.
Outgoing: 11

Data provenance: ChEMBL document CHEMBL1121426
